Below, each entry is listed with its recorded cell viability.
# Test system: U2OS
# procedure_details: cell viability relative to DMSO; higher = less toxic
# test_conditions: 72 h; 1 nM
Counter-ions that a name gives are not always drawn.
value_kind: cell viability (%)

[[record]]
molecule = "O=C(NCCO)c1cccc(-c2cc(Nc3ccc(OC(F)(F)F)cc3)ncn2)c1"
reported_result = 95.7

[[record]]
molecule = "CCOC(=O)OC(C)OC1=C(C(=O)Nc2ccccn2)N(C)S(=O)(=O)c2ccccc21 (stereo not drawn)"
reported_result = 97.2

[[record]]
molecule = "CCOc1ccc(C(=O)OCCN(CC)CC)cc1"
reported_result = 101

[[record]]
molecule = "CO/N=C(\\C(=O)N[C@@H]1C(=O)N2C(C(=O)O)=C(CSC(=O)c3ccco3)CS[C@H]12)c1csc(N)n1 [CEFTIOFUR HYDROCHLORIDE]"
reported_result = 104

[[record]]
molecule = "NS(=O)(=O)c1cc2c(cc1Cl)NC(CC1CCCC1)NS2(=O)=O (stereo not drawn) [cyclopenthiazide]"
reported_result = 100

[[record]]
molecule = "COc1ccc([C@]2(C#N)CC[C@@H](C(=O)O)CC2)cc1OC1CCCC1"
reported_result = 103

[[record]]
molecule = "Cc1c(F)cccc1NC(=O)Nc1ccc(Cl)c(S(=O)(=O)[C@H]2CCCNC2)c1O"
reported_result = 99

[[record]]
molecule = "C=C(C)[C@@H]1[C@H]2OC(=O)[C@@H]1[C@]1(O)C[C@H]3O[C@]34C(=O)O[C@H]2[C@]14C"
reported_result = 101

